Give growth for every item shown.
test system: MOLT-4 leukemia; experiment: NCI-60 one-dose screen, 48 h (100 = growth as untreated, 0 = no growth, -100 = all killed); conditions: 10 µM unless noted
About 83,000 compounds went through this panel and 20% of them were active in at least one assay; those are over-represented in the sample as a whole. The source made the active and inactive calls. Rule for the calls: active = growth percent below 10; inactive = the rest.

If you can, please state the reported growth value of `COc1ccc(-c2cc(-c3cccc(Cl)c3)c(C#N)c(=O)[nH]2)c(OC)c1` .
103% (inactive)

If you can, please state the reported growth value of `Cc1c(CC(=O)OCCO)cc(-c2ccc(Cl)cc2)n1-c1ccccc1` .
91.4% (inactive)

If you can, please state the reported growth value of `COc1ccc(N2CCN(S(=O)(=O)c3oc(-c4ccccc4)nc3C#N)CC2)cc1` .
3.95% (active)

If you can, please state the reported growth value of `CN(C)CCCn1c2c(c3ccc(N4CCNCC4)cc3c1=O)C(=O)c1ccccc1-2` .
-21.9% (active)

If you can, please state the reported growth value of `CC[C@@H]1NC(=O)[C@H]([C@H](O)[C@H](C)C/C=C/c2ccc(CN3C(=O)C(C)=C(C)C3=O)cc2)N(C)C(=O)[C@H](C(C)C)N(C)C(=O)[C@H](CC(C)C)N(C)C(=O)[C@H](CC(C)C)N(C)C(=O)[C@@H](C)NC(=O)[C@H](C)NC(=O)[C@H](CC(C)C)N(C)C(=O)[C@H](C(C)C)NC(=O)[C@H](CC(C)C)N(C)C(=O)CN(C)C1=O` .
62.4% (inactive)

If you can, please state the reported growth value of `Clc1ccc(CNc2ccc3nc(CCC4CCCCC4)[nH]c3c2)cc1` .
39.1% (inactive)

If you can, please state the reported growth value of `Cc1cccc(Cc2cnc(NC(=O)CCCOc3ccc(Cl)cc3)s2)c1` .
40.1% (inactive)

If you can, please state the reported growth value of Cc1c(O)c(O)cc2c3c(oc12)CC(c1ccc2c(c1)OCO2)CC3=O (stereo not drawn) .
84.4% (inactive)

If you can, please state the reported growth value of `Cc1ccc(Cc2cnc(NC(=O)c3cc(C)oc3C)s2)cc1` .
60.2% (inactive)

If you can, please state the reported growth value of `COc1cc(-c2nc(SCCC(C)C)nc(Nc3ccc(F)cc3)c2C#N)cc(OC)c1OC` .
83.4% (inactive)

If you can, please state the reported growth value of `Cc1ccc(/C=C(\C#N)c2cc3ccccc3[nH]2)cc1` .
30.6% (inactive)

If you can, please state the reported growth value of `O=S(=O)(Nc1ccc(F)cc1)c1ccc(-c2cnc(C3CC3)o2)cc1` .
12.7% (inactive)

If you can, please state the reported growth value of `Cn1cc(-c2csc(-c3cn(CCOC(N)=O)c4ccccc34)n2)c2cccnc21` .
69.1% (inactive)

If you can, please state the reported growth value of `CON1CCC[C@]2(C)[C@H]3CC[C@@H]4[C@H]5[C@@H](O)C(C)(C)CC[C@]5(CO)CC[C@@]4(C)[C@]3(C)CC[C@H]2C1(C)C` .
83.7% (inactive)

If you can, please state the reported growth value of `Cn1cc(-c2csc(-c3c[nH]c4ccc(F)cc34)n2)c2cnccc21` .
-34.7% (active)

If you can, please state the reported growth value of `Cc1ccc(-c2nc3nc(-c4ccc(F)cc4)nc(N4CCCNCC4)c3o2)cc1` .
-61.1% (active)

If you can, please state the reported growth value of `N=c1c2c(-c3ccccc3)c(-c3ccccc3)oc2ncn1NC(=O)c1cccnc1` .
89.9% (inactive)

If you can, please state the reported growth value of `COc1cc2cc(NCc3ccncc3)nc(C)c2cc1OC` .
109% (inactive)

If you can, please state the reported growth value of `O=C1C(Nc2ccc(Cl)cc2)=C(I)C(=O)c2ncccc21` .
-1.19% (active)

If you can, please state the reported growth value of `COc1ccc(Cl)cc1Nc1nc(C(F)(F)F)ccc1C(=O)N/N=C/c1ccc(N(C)C)cc1` .
90.4% (inactive)

If you can, please state the reported growth value of `O=S(=O)(O)c1ccc(N=Nc2ccc(N=Nc3cccc4ccccc34)c(S(=O)(=O)O)c2)cc1` .
108% (inactive)

If you can, please state the reported growth value of `O=C(CCN1CCOCC1)Nc1cccc(-n2cc(-c3ccncc3)c(-c3ccc(Cl)c(O)c3)n2)c1` .
28.6% (inactive)

If you can, please state the reported growth value of `Cc1ccc(NC(=O)N/C(N)=N/c2nc(=O)c3ccccc3s2)cc1` .
99.8% (inactive)

The measurements presented in this section are drawn from PubChem BioAssay (NCI).
